assay.system: human Nav1.7 channels stably expressed in HEK 293 cells (Homo sapiens)
Construct: expressed in transfected cells
assay.summary: IonWorks Quattro automated patch-clamp, state-dependent inhibition of Nav1.7
Type: cell-based
condition.set: inactivated state block, double-pulse protocol, holding -100 mV, read-out: potency for the Nav 1.7 sodium ion channel (as measured by IonWorks)
For each record, write down the corresponding pIC50.
For clarity, pIC50 is expressed as the negative log10 of concentration in mol/L.

Q: What value of pIC50 has been recorded for this entry: NCC(O)CNCCCCNc1cc(F)c(S(=O)(=O)Nc2ncc(F)s2)cc1Cl (single isomer, unassigned) [EX 2-17]
A: 7.82

Q: What value of pIC50 has been recorded for this entry: O=S(=O)(Nc1ncc(F)s1)c1cc(Cl)c(NCCCCNCC2(O)CNC2)cc1F
A: 7.85

Q: What value of pIC50 has been recorded for this entry: NCC[C@@H](CO)NCCCCNc1cc(F)c(S(=O)(=O)Nc2ncc(F)s2)cc1Cl
A: 7.70

Q: What value of pIC50 has been recorded for this entry: CC1(O)CN[C@H](CNCCCCNc2cc(F)c(S(=O)(=O)Nc3nccs3)cc2Cl)C1 (some centres unmarked)
A: 7.00

Q: What value of pIC50 has been recorded for this entry: NC[C@H](CO)NCCCCNc1cc(F)c(S(=O)(=O)Nc2ncns2)cc1Cl
A: 7.54

----------
For each record, write down the corresponding pIC50.
assay.system: human Nav1.7 channels stably expressed in HEK 293 cells (Homo sapiens, UniProt Q15858)
Sequence (Q15858 whole entry): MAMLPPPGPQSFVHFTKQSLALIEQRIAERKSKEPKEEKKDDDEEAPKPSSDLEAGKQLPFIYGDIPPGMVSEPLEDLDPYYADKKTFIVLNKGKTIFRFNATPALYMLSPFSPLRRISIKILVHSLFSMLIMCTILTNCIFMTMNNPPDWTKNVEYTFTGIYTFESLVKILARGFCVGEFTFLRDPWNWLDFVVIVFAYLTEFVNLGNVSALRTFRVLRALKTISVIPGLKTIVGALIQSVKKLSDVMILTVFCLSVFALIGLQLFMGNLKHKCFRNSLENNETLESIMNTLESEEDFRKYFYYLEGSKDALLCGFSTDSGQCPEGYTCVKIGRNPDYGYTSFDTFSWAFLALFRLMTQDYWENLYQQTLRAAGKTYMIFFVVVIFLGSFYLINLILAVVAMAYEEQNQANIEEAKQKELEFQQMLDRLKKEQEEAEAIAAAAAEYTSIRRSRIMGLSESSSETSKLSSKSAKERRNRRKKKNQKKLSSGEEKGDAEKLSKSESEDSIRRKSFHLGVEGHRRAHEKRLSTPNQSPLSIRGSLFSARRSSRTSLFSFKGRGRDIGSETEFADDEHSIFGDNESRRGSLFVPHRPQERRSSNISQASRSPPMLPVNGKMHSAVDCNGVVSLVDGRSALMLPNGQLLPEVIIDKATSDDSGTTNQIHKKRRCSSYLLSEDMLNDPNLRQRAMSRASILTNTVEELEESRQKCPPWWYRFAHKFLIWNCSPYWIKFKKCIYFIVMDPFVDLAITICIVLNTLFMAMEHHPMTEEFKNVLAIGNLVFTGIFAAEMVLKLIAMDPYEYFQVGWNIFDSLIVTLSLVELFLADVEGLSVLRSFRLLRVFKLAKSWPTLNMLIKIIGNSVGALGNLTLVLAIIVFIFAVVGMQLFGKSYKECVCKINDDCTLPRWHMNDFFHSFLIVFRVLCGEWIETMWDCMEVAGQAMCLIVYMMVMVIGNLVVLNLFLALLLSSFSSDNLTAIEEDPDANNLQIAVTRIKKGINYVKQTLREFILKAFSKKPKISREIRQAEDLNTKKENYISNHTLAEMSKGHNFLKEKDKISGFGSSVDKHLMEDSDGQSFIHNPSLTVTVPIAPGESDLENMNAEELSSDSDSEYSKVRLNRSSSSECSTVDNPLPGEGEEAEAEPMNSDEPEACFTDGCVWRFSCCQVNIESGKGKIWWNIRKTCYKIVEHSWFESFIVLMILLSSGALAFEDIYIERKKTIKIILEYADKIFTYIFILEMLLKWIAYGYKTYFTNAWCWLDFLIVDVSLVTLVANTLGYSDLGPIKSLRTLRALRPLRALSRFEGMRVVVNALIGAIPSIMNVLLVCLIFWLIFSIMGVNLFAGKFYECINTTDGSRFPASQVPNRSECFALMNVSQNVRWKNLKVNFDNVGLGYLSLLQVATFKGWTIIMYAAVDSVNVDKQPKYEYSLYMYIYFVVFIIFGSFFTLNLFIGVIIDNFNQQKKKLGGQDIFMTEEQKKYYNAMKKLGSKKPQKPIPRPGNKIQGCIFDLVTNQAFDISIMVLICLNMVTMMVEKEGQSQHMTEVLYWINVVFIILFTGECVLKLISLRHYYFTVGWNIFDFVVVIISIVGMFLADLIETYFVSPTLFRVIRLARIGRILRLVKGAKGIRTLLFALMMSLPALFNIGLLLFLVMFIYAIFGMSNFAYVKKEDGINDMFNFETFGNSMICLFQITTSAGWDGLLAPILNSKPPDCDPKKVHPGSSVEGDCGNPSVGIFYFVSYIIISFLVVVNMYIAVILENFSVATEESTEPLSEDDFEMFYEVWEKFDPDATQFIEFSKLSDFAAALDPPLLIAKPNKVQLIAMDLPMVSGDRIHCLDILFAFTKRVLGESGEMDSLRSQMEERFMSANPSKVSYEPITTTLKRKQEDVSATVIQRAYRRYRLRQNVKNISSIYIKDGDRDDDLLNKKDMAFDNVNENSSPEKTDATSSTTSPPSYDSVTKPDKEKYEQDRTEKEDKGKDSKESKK
assay.summary: IonWorks Quattro automated patch-clamp, state-dependent inhibition of Nav1.7
condition.set: inactivated state block, double-pulse protocol, holding -100 mV, read-out: potency for the Nav 1.7 sodium ion channel (as measured by IonWorks)
For clarity, pIC50 is expressed as the negative log10 of concentration in mol/L.

Q: What measured pIC50 is associated with O=S(=O)(Nc1ncc(F)s1)c1cc(Br)c(NCCCCNCC2(O)CNC2)cc1F [EX 2-25] on human Nav1.7 channels stably expressed in HEK 293 cells (Homo sapiens, UniProt Q15858)?
A: 7.82

Q: What measured pIC50 is associated with NC[C@@H](CO)NCCCCNc1cc(F)c(S(=O)(=O)Nc2ncc(F)s2)cc1Cl [EX 2-36] on human Nav1.7 channels stably expressed in HEK 293 cells (Homo sapiens, UniProt Q15858)?
A: 7.62

Q: What measured pIC50 is associated with O=S(=O)(Nc1ncc(F)s1)c1cc(Cl)c(NCCCCNCCNCCO)cc1F [EX 2-9] on human Nav1.7 channels stably expressed in HEK 293 cells (Homo sapiens, UniProt Q15858)?
A: 7.54

Q: What measured pIC50 is associated with NCC1(O)CN(CCCCNc2cc(F)c(S(=O)(=O)Nc3ncc(F)s3)cc2Cl)C1 [EX 1-2] on human Nav1.7 channels stably expressed in HEK 293 cells (Homo sapiens, UniProt Q15858)?
A: 7.70

Q: What measured pIC50 is associated with O=S(=O)(Nc1nccs1)c1cc(Cl)c(NCCCCNCC2(O)CNC2)cc1F [EX 2-28] on human Nav1.7 channels stably expressed in HEK 293 cells (Homo sapiens, UniProt Q15858)?
A: 7.74

Q: What measured pIC50 is associated with NC[C@H](CO)NCCCCNc1cc(F)c(S(=O)(=O)Nc2ncc(F)s2)cc1Cl [EX 2-40] on human Nav1.7 channels stably expressed in HEK 293 cells (Homo sapiens, UniProt Q15858)?
A: 7.30

Q: What measured pIC50 is associated with NC[C@H](CO)NCCCCNc1cc(F)c(S(=O)(=O)Nc2nccs2)cc1Cl [EX 2-39] on human Nav1.7 channels stably expressed in HEK 293 cells (Homo sapiens, UniProt Q15858)?
A: 7.22

Q: What measured pIC50 is associated with NCC[C@@H](CO)NCCCCNc1cc(F)c(S(=O)(=O)Nc2nccs2)cc1Cl [EX 2-32] on human Nav1.7 channels stably expressed in HEK 293 cells (Homo sapiens, UniProt Q15858)?
A: 7.72

Q: What measured pIC50 is associated with O=S(=O)(Nc1nccs1)c1cc(Cl)c(NCCCCN[C@H]2CNC[C@@H]2O)cc1F [EX 2-38] on human Nav1.7 channels stably expressed in HEK 293 cells (Homo sapiens, UniProt Q15858)?
A: 7.40

Q: What measured pIC50 is associated with NC[C@H](O)CNCCCCNc1cc(F)c(S(=O)(=O)Nc2ncns2)cc1Cl [EX 1-1] on human Nav1.7 channels stably expressed in HEK 293 cells (Homo sapiens, UniProt Q15858)?
A: 7.30

Q: What measured pIC50 is associated with NCC(O)CNCCCCNc1cc(F)c(S(=O)(=O)Nc2nccs2)cc1Cl (single isomer, unassigned) [EX 2-29] on human Nav1.7 channels stably expressed in HEK 293 cells (Homo sapiens, UniProt Q15858)?
A: 7.74

Q: What measured pIC50 is associated with NC[C@@H](CO)NCCCCNc1cc(F)c(S(=O)(=O)Nc2ncns2)cc1Cl [EX 2-37] on human Nav1.7 channels stably expressed in HEK 293 cells (Homo sapiens, UniProt Q15858)?
A: 7.57

Q: What measured pIC50 is associated with Cc1csc(NS(=O)(=O)c2cc(Cl)c(NCCCCNCC3(O)CNC3)cc2F)n1 [EX 1-9] on human Nav1.7 channels stably expressed in HEK 293 cells (Homo sapiens, UniProt Q15858)?
A: 7.26

Q: What measured pIC50 is associated with O=S(=O)(Nc1ncc(F)s1)c1cc(Cl)c(NCCCCNC[C@H]2C[C@H](O)CN2)cc1F [EX 2-24] on human Nav1.7 channels stably expressed in HEK 293 cells (Homo sapiens, UniProt Q15858)?
A: 7.52

Q: What measured pIC50 is associated with NC[C@H](O)CNCCCCNc1cc(F)c(S(=O)(=O)Nc2ncns2)cc1Br [EX 1-7] on human Nav1.7 channels stably expressed in HEK 293 cells (Homo sapiens, UniProt Q15858)?
A: 8.15

Q: What measured pIC50 is associated with NC[C@@H](O)CNCCCCNc1cc(F)c(S(=O)(=O)Nc2ncns2)cc1Br [EX 1-8] on human Nav1.7 channels stably expressed in HEK 293 cells (Homo sapiens, UniProt Q15858)?
A: 7.77

Q: What measured pIC50 is associated with NCC(O)CNCCCCNc1cc(F)c(S(=O)(=O)Nc2ncc(F)s2)cc1Cl (single isomer, unassigned) [EX 2-18] on human Nav1.7 channels stably expressed in HEK 293 cells (Homo sapiens, UniProt Q15858)?
A: 7.80

Q: What measured pIC50 is associated with O=S(=O)(Nc1ncns1)c1cc(Br)c(NCCCCNCC2(O)CNC2)cc1F [EX 1-5] on human Nav1.7 channels stably expressed in HEK 293 cells (Homo sapiens, UniProt Q15858)?
A: 7.72

Q: What measured pIC50 is associated with NCC[C@@H](CO)NCCCCNc1cc(F)c(S(=O)(=O)Nc2ncns2)cc1Cl [EX 2-34] on human Nav1.7 channels stably expressed in HEK 293 cells (Homo sapiens, UniProt Q15858)?
A: 7.74

Q: What measured pIC50 is associated with NCC(O)CNCCCCNc1cc(F)c(S(=O)(=O)Nc2nccs2)cc1Cl (single isomer, unassigned) [EX 2-30] on human Nav1.7 channels stably expressed in HEK 293 cells (Homo sapiens, UniProt Q15858)?
A: 7.77

Q: What measured pIC50 is associated with O=S(=O)(Nc1nccs1)c1cc(Cl)c(NCCCCN[C@@H]2CNC[C@H]2O)cc1F [EX 2-31] on human Nav1.7 channels stably expressed in HEK 293 cells (Homo sapiens, UniProt Q15858)?
A: 7.52

Q: What measured pIC50 is associated with O=S(=O)(Nc1ncns1)c1cc(Cl)c(NCCCCN[C@@H]2CNC[C@H]2O)cc1F [EX 2-2] on human Nav1.7 channels stably expressed in HEK 293 cells (Homo sapiens, UniProt Q15858)?
A: 7.64

Q: What measured pIC50 is associated with O=S(=O)(Nc1ncc(F)s1)c1cc(Cl)c(NCCCCN[C@@H]2CNC[C@H]2O)cc1F [EX 2-20] on human Nav1.7 channels stably expressed in HEK 293 cells (Homo sapiens, UniProt Q15858)?
A: 7.40

Q: What measured pIC50 is associated with O=S(=O)(Nc1ncns1)c1cc(Cl)c(NCCCCNCCNCCO)cc1F [EX 2-4] on human Nav1.7 channels stably expressed in HEK 293 cells (Homo sapiens, UniProt Q15858)?
A: 7.46

Q: What measured pIC50 is associated with O=S(=O)(Nc1ncns1)c1cc(Br)c(NCCCCN[C@H]2CNC[C@@H]2O)cc1F [EX 2-43] on human Nav1.7 channels stably expressed in HEK 293 cells (Homo sapiens, UniProt Q15858)?
A: 7.82

Q: What measured pIC50 is associated with NC[C@@H](O)CNCCCCNc1cc(F)c(S(=O)(=O)Nc2ncns2)cc1Cl [EX 1-6] on human Nav1.7 channels stably expressed in HEK 293 cells (Homo sapiens, UniProt Q15858)?
A: 7.82

Q: What measured pIC50 is associated with Cc1cc(S(=O)(=O)Nc2ncc(F)s2)c(F)cc1NCCCCNCC1(O)CNC1 [EX 1-4] on human Nav1.7 channels stably expressed in HEK 293 cells (Homo sapiens, UniProt Q15858)?
A: 7.41

Q: What measured pIC50 is associated with NC[C@@H](CO)NCCCCNc1cc(F)c(S(=O)(=O)Nc2nccs2)cc1Cl [EX 2-35] on human Nav1.7 channels stably expressed in HEK 293 cells (Homo sapiens, UniProt Q15858)?
A: 7.82

Q: What measured pIC50 is associated with O=S(=O)(Nc1ncc(F)s1)c1cc(Cl)c(NCCCCNC[C@@H]2C[C@@H](O)CN2)cc1F [EX 2-22] on human Nav1.7 channels stably expressed in HEK 293 cells (Homo sapiens, UniProt Q15858)?
A: 7.46

Q: What measured pIC50 is associated with O=S(=O)(Nc1ncc(F)s1)c1cc(Cl)c(NCCCCNC[C@@H]2C[C@H](O)CN2)cc1F [EX 2-21] on human Nav1.7 channels stably expressed in HEK 293 cells (Homo sapiens, UniProt Q15858)?
A: 7.49

Q: What measured pIC50 is associated with O=S(=O)(Nc1ncc(F)s1)c1cc(Cl)c(NCCCCN[C@H]2CNC[C@@H]2O)cc1F [EX 2-16] on human Nav1.7 channels stably expressed in HEK 293 cells (Homo sapiens, UniProt Q15858)?
A: 7.49

Value source: patent US10221167B2
